MEASURED_ON: hERG potassium channel (Homo sapiens, UniProt Q12809)
Construct: host or cells: HEK 293 T-REx
Sequence (Q12809 whole entry): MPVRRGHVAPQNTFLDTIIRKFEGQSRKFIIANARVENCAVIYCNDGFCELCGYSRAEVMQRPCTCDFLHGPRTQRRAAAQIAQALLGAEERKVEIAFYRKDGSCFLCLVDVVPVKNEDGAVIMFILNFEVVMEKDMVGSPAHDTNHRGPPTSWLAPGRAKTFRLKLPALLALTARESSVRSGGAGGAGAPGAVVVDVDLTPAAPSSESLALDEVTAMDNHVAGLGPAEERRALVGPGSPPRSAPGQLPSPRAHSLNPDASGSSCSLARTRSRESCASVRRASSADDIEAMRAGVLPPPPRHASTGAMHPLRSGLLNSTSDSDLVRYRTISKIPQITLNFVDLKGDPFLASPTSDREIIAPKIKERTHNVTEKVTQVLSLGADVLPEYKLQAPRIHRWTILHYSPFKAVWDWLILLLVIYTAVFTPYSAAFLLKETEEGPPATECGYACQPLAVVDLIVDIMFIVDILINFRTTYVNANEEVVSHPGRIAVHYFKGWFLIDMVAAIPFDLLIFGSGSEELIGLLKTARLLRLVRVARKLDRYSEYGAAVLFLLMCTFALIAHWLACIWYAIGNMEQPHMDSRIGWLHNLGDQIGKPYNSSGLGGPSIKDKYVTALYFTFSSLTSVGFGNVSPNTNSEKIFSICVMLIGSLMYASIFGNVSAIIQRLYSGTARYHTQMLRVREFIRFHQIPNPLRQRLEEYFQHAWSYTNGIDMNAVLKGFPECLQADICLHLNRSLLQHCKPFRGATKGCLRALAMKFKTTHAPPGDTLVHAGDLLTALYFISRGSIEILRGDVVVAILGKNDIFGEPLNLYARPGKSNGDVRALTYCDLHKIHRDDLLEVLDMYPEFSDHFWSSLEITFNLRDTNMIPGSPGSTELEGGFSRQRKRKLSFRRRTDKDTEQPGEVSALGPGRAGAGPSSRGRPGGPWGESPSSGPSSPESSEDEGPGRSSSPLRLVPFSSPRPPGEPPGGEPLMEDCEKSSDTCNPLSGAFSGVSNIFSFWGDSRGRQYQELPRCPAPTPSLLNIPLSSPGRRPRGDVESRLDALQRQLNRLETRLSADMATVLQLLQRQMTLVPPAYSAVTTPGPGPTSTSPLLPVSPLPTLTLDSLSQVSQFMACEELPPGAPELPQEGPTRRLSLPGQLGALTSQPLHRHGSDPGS
ASSAY_NAME: Whole cell patch clamp, HEK 293 T-REx HERG cells
Type: cell-based
MEASUREMENT_PARAMETERS: estimated by Hill fit with hill=1, ymax=100; tested at 10 μM, n=2; read-out: IC50 (μM) hERG

>  <MOLECULE>
Cc1nc(Nc2ccc(Cl)cc2)sc1C(=O)N[C@H](C)c1ccc2ccccc2c1

>  <IC50>
24.2 µM

$$$$
>  <MOLECULE>
COc1ccc(OC)c(Nc2nc(C)c(C(=O)N[C@@H]3CCC[C@H]3OCc3ccccc3)s2)c1

>  <IC50>
33.5 µM

$$$$
>  <MOLECULE>
Cc1nc(Nc2ccc(Br)cc2)sc1C(=O)N[C@H](C)c1ccc2ccccc2c1

>  <IC50>
90 µM

$$$$
>  <MOLECULE>
Cc1nc(Nc2ccc(Br)cc2)sc1C(=O)NCc1ccc(F)c(C(F)(F)F)c1

>  <IC50>
5.29 µM

$$$$

----------
Recorded IC50 values for a group of compounds are listed next.
MEASURED_ON: human Kv4.3/KChIP2.2 potassium channel (Homo sapiens)
Construct: expressed in transfected cells
Sequence (Q9UK17 whole entry): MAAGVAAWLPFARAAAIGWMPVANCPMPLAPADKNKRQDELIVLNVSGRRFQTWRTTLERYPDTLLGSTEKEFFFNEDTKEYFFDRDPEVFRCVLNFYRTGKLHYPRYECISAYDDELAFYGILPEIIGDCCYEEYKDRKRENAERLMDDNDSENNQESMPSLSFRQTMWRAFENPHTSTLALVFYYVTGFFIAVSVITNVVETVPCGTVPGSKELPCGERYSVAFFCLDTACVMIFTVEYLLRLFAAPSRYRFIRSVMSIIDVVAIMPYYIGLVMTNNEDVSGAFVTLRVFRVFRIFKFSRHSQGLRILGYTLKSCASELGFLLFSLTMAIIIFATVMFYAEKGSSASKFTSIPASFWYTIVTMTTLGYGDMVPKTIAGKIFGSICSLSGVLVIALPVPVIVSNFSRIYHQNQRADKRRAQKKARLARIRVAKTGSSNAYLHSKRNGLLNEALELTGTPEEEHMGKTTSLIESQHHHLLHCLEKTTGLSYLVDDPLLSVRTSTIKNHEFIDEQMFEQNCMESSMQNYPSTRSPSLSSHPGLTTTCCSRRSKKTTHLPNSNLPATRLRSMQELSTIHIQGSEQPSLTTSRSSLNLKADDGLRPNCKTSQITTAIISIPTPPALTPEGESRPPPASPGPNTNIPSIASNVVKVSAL
ASSAY_NAME: Whole cell patch clamp, CHO-K1 cells stably expressing human Kv4.3/KChIP2.2
Assay type: cell-based
MEASUREMENT_PARAMETERS: estimated by Hill fit with hill=1, ymax=100; tested at 2 μM, n=2; read-out: IC50 (μM) Kv4.3
ENDPOINT_LABEL: IC50 (µM)

>  <COMPOUND>
Cc1nc(Nc2ccc(Br)cc2)sc1C(=O)NCc1ccc(F)c(C(F)(F)F)c1 [Compound 63]

>  <MEASURED_ON>
human Kv4.3/KChIP2.2 potassium channel (Homo sapiens)

>  <ENDPOINT_LABEL>
IC50

>  <MEASURED_NUMBER>
0.16

$$$$
>  <COMPOUND>
COc1ccc(OC)c(Nc2nc(C)c(C(=O)N[C@@H]3CCC[C@H]3OCc3ccccc3)s2)c1 [Compound 33]

>  <MEASURED_ON>
human Kv4.3/KChIP2.2 potassium channel (Homo sapiens)

>  <ENDPOINT_LABEL>
IC50

>  <MEASURED_NUMBER>
3.35

$$$$
>  <COMPOUND>
Cc1nc(Nc2ccc(Cl)cc2)sc1C(=O)N[C@H](C)c1ccc2ccccc2c1 [Compound 52]

>  <MEASURED_ON>
human Kv4.3/KChIP2.2 potassium channel (Homo sapiens)

>  <ENDPOINT_LABEL>
IC50

>  <MEASURED_NUMBER>
0.34

$$$$
>  <COMPOUND>
Cc1nc(Nc2ccc(F)cc2)sc1C(=O)N[C@H](C)c1ccc2ccccc2c1 [Compound 16]

>  <MEASURED_ON>
human Kv4.3/KChIP2.2 potassium channel (Homo sapiens)

>  <ENDPOINT_LABEL>
IC50

>  <MEASURED_NUMBER>
1.84

$$$$
>  <COMPOUND>
Cc1nc(Nc2ccc(Br)cc2)sc1C(=O)N[C@@H](C)c1ccc2ccccc2c1 [Compound 18]

>  <MEASURED_ON>
human Kv4.3/KChIP2.2 potassium channel (Homo sapiens)

>  <ENDPOINT_LABEL>
IC50

>  <MEASURED_NUMBER>
3.85

$$$$
>  <COMPOUND>
COc1ccccc1Nc1nc(C)c(C(=O)N[C@H]2CCC[C@@H]2OCc2ccccc2)s1 [Compound 68]

>  <MEASURED_ON>
human Kv4.3/KChIP2.2 potassium channel (Homo sapiens)

>  <ENDPOINT_LABEL>
IC50

>  <MEASURED_NUMBER>
0.54

$$$$
>  <COMPOUND>
COc1cccc([C@@H](C)NC(=O)c2sc(Nc3cc(Cl)ccc3OC)nc2C)c1 [Compound 34]

>  <MEASURED_ON>
human Kv4.3/KChIP2.2 potassium channel (Homo sapiens)

>  <ENDPOINT_LABEL>
IC50

>  <MEASURED_NUMBER>
1.62

$$$$
>  <COMPOUND>
Cc1nc(Nc2ccc(Cl)cc2)sc1C(=O)N[C@@H](C)c1ccc2ccccc2c1 [Compound 54]

>  <MEASURED_ON>
human Kv4.3/KChIP2.2 potassium channel (Homo sapiens)

>  <ENDPOINT_LABEL>
IC50

>  <MEASURED_NUMBER>
2.41

$$$$
>  <COMPOUND>
COc1ccccc1Nc1nc(C)c(C(=O)N[C@@H](C)c2ccc3ccccc3c2)s1 [Compound 55]

>  <MEASURED_ON>
human Kv4.3/KChIP2.2 potassium channel (Homo sapiens)

>  <ENDPOINT_LABEL>
IC50

>  <MEASURED_NUMBER>
2.02

$$$$
>  <COMPOUND>
Cc1nc(Nc2ccc(Br)cc2)sc1C(=O)N[C@H](C)c1ccc2ccccc2c1 [Compound 19]

>  <MEASURED_ON>
human Kv4.3/KChIP2.2 potassium channel (Homo sapiens)

>  <ENDPOINT_LABEL>
IC50

>  <MEASURED_NUMBER>
2.72

$$$$
>  <COMPOUND>
Cc1nc(Nc2ccc(Cl)cc2)sc1C(=O)N[C@@H]1CCC[C@H]1OCc1ccccc1 [Compound 30]

>  <MEASURED_ON>
human Kv4.3/KChIP2.2 potassium channel (Homo sapiens)

>  <ENDPOINT_LABEL>
IC50

>  <MEASURED_NUMBER>
1.25

$$$$
>  <COMPOUND>
COc1ccc(CNC(=O)c2sc(Nc3ccc(Br)cc3)nc2C)cc1 [Compound 60]

>  <MEASURED_ON>
human Kv4.3/KChIP2.2 potassium channel (Homo sapiens)

>  <ENDPOINT_LABEL>
IC50

>  <MEASURED_NUMBER>
0.39

$$$$
>  <COMPOUND>
Cc1nc(Nc2ccc(Br)cc2)sc1C(=O)NCc1cccc2ccccc12 [Compound 56]

>  <MEASURED_ON>
human Kv4.3/KChIP2.2 potassium channel (Homo sapiens)

>  <ENDPOINT_LABEL>
IC50

>  <MEASURED_NUMBER>
1.07

$$$$
>  <COMPOUND>
COc1ccccc1Nc1nc(C)c(C(=O)N[C@@H]2CCC[C@H]2OCc2ccccc2)s1 [Compound 31]

>  <MEASURED_ON>
human Kv4.3/KChIP2.2 potassium channel (Homo sapiens)

>  <ENDPOINT_LABEL>
IC50

>  <MEASURED_NUMBER>
2.91

$$$$
>  <COMPOUND>
Cc1nc(Nc2ccc(Br)cc2)sc1C(=O)NCc1ccc(N(C)C)cc1 [Compound 64]

>  <MEASURED_ON>
human Kv4.3/KChIP2.2 potassium channel (Homo sapiens)

>  <ENDPOINT_LABEL>
IC50

>  <MEASURED_NUMBER>
0.83

$$$$
>  <COMPOUND>
COc1cc(CNC(=O)c2sc(Nc3ccc(Br)cc3)nc2C)cc(OC)c1 [Compound 65]

>  <MEASURED_ON>
human Kv4.3/KChIP2.2 potassium channel (Homo sapiens)

>  <ENDPOINT_LABEL>
IC50

>  <MEASURED_NUMBER>
0.18

$$$$
